kinase still bound, per cent of control overview
Molecular target: GSK3A (human) (UniProt P49840)
Sequence (P49840 whole entry, looked up): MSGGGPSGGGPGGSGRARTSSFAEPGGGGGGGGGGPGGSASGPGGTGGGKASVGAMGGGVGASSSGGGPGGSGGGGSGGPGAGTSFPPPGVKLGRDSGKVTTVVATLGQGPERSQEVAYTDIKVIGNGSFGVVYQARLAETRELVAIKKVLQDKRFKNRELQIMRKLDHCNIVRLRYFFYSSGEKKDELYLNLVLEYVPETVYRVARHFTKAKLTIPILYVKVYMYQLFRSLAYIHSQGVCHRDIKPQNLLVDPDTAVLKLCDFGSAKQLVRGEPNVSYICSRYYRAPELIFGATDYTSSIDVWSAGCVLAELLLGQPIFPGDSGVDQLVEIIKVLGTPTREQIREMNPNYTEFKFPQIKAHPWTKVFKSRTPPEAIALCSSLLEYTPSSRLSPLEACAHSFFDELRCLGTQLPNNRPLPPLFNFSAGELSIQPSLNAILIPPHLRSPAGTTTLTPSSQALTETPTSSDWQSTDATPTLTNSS
Test: KINOMEscan competition binding
Details: compound 10.0 µM
Kindly provide the numeric value in % only, without the unit symbol.

The following molecules have reported results that may help.
q: Find the measured kinase still bound, per cent of control of N=C1NC(=O)/C(=C/c2ccc(-c3ccc(F)cc3)o2)S1 and report it.
a: 4.3

q: Find the measured kinase still bound, per cent of control of COc1cc(N2CCC(O)CC2)ccc1Nc1ncc2c(n1)N1CCc3cccc(c31)C(=O)N2C and report it.
a: 100

q: Find the measured kinase still bound, per cent of control of Cc1cn(-c2cc(NC(=O)c3cccc4cc(-c5ccc(/C=C6\SC(=N)NC6=O)o5)ccc34)cc(C(F)(F)F)c2)cn1 and report it.
a: 32

q: Find the measured kinase still bound, per cent of control of COc1cc(N2CCN(C)CC2)ccc1Nc1ncc2c(n1)N(C)c1sccc1C(=O)N2C and report it.
a: 100

Further cases:
q: Find the measured kinase still bound, per cent of control of CS(=O)(=O)Nc1ccc(-c2cncc(/C=C3\SC(=N)NC3=O)c2)cc1 and report it.
a: 13

q: Find the measured kinase still bound, per cent of control of N=C1NC(=O)/C(=C/c2ccc(-c3csc4ccccc34)o2)S1 and report it.
a: 0
